Test system: TNBS-induced ulcerative colitis model mice
Test: TNBS-induced mice ulcerative colitis model
Assay type: in vivo, BALB/c male mice
Conditions: 0-4 points by weight decrease; ig 7 days; compound 20 mg/kg, sulfasalazine 500 mg/kg
Here the recorded Score (body weight index according to the disease activity index, DAI) is given for each entry.
Endpoint name: Score (body weight index according to the disease activity index, DAI)

>>> test_result("O=C(O)c1ccccc1/C=N/Nc1nc(-c2ccccc2Cl)cs1")
1
>>> test_result("Cc1sc(N(C)/N=C/c2ccccc2C(=O)O)nc1-c1ccccc1")
1
>>> test_result("CN(/N=C/c1ccccc1C(=O)O)c1nc(-c2ccccc2Cl)cs1")
1

---

Tested on: TNBS-induced ulcerative colitis model mice
Assay: TNBS-induced mice ulcerative colitis model
Assay type: in vivo, BALB/c male mice
Conditions: 24 hours after last administration; ig 7 days; compound 20 mg/kg, sulfasalazine 500 mg/kg
Here the recorded Weight of the colon is given for each entry.
Endpoint name: Weight of the colon (g)

>>> test_result("CN(/N=C/c1ccc(C(F)(F)F)cc1C(=O)O)c1nc(-c2ccccc2Cl)cs1")
0.157
>>> test_result("CN(/N=C/c1ccccc1C(=O)O)c1nc(-c2cccc(Cl)c2)cs1")
0.158
>>> test_result("CN(/N=C/c1cc(F)c(F)cc1C(=O)O)c1nc(-c2ccccc2Cl)cs1")
0.153
>>> test_result("Cc1sc(N(C)/N=C/c2ccccc2C(=O)O)nc1-c1ccccc1")
0.154
>>> test_result("O=C(O)c1c(F)cccc1/C=N/Nc1nc(-c2ccccc2Cl)cs1")
0.162
>>> test_result("Cc1sc(N/N=C/c2ccccc2C(=O)O)nc1-c1ccccc1")
0.159
>>> test_result("O=C(O)c1ccccc1/C=N/Nc1nc(-c2cc(Cl)ccc2Cl)cs1")
0.148
>>> test_result("CN(/N=C/c1ccccc1C(=O)O)c1nc(-c2ccccc2Cl)cs1")
0.162
>>> test_result("O=C(O)c1cc(/N=N/c2ccc(S(=O)(=O)Nc3ccccn3)cc2)ccc1O [sulfasalazine, reference compound]")
0.145

---

Here the recorded Score (body weight index according to the disease activity index, DAI) is given for each entry.
Test system: TNBS-induced ulcerative colitis model mice
Assay: TNBS-induced mice ulcerative colitis model
Format: in vivo, BALB/c male mice
Conditions: 0-4 points by weight decrease; ig 7 days; compound 20 mg/kg, sulfasalazine 500 mg/kg
Endpoint name: Score (body weight index according to the disease activity index, DAI)

>>> test_result("CCCN(/N=C/c1ccccc1C(=O)O)c1nc(-c2ccccc2Cl)cs1")
2
>>> test_result("CN(/N=C/c1ccc(C(F)(F)F)cc1C(=O)O)c1nc(-c2ccccc2Cl)cs1")
1
>>> test_result("O=C(O)c1cc(/N=N/c2ccc(S(=O)(=O)Nc3ccccn3)cc2)ccc1O [sulfasalazine, reference compound]")
1
>>> test_result("CN(/N=C/c1cc(F)c(F)cc1C(=O)O)c1nc(-c2ccccc2Cl)cs1")
3
>>> test_result("O=C(O)c1ccccc1/C=N/Nc1nc(-c2cc(Cl)ccc2Cl)cs1")
1
>>> test_result("CCN(/N=C/c1ccccc1C(=O)O)c1nc(-c2ccccc2Cl)cs1")
1
>>> test_result("CN(/N=C/c1ccc(F)cc1C(=O)O)c1nc(-c2ccccc2Cl)cs1")
1
>>> test_result("Cc1ccc(/C=N/N(C)c2nc(-c3ccccc3Cl)cs2)c(C(=O)O)c1")
1
>>> test_result("O=C(O)c1cc(C(F)(F)F)ccc1/C=N/Nc1nc(-c2ccccc2Cl)cs1")
1
